tgt: Mitogen-activated protein kinase kinase kinase kinase 1 (Homo sapiens, UniProt Q92918)
Sequence (Q92918 whole entry): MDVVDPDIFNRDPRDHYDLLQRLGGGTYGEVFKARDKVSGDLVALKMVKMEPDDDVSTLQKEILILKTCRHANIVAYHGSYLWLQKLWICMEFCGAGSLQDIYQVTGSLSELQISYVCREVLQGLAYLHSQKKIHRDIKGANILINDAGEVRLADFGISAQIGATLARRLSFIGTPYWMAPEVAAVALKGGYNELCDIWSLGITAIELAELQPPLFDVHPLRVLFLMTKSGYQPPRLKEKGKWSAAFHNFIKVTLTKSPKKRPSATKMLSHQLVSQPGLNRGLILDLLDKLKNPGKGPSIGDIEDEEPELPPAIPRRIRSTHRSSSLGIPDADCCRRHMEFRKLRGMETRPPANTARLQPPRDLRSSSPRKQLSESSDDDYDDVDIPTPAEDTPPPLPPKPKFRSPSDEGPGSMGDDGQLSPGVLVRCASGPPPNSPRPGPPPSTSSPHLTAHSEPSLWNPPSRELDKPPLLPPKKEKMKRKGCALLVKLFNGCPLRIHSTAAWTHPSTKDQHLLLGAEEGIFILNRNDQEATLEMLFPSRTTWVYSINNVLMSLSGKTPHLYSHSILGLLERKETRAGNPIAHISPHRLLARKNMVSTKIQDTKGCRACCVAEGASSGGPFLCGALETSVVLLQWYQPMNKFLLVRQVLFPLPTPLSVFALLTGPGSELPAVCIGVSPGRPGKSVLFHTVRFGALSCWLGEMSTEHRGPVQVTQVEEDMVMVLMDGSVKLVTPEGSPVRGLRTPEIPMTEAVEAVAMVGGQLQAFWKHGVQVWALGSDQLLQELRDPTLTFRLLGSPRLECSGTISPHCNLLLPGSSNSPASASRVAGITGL
assay.explanation: HPK1 Lantha Binding Assay
Would you kindly list Ki for each of these compounds?
Answers are plain numbers, in nM.

Give Ki for each listed item.
1. CN(C)C(=O)c1ccc(-c2cnc3c(c2Cl)C2(CC=CC2)CN3)cc1Cl [US12208088, Compound 192]
2. O=C1NCCC1c1cccc(-c2cnc3c(c2)C2(CC2)CN3)c1F (configuration not stated) [US12208088, Compound 92]
3. N#CC1CCCCN1C(=O)c1cccc(-c2cnc3c(c2Cl)C2(CC=CC2)CN3)c1F (configuration not stated) [US12208088, Compound 264]
4. CC1CNC(=O)N1c1c(N)ccc(-c2cnc3c(c2Cl)C2(CC2)CN3)c1F (configuration not stated) [US12208088, Compound 25]
5. CN(C)C(=O)c1c(N)ccc(-c2cnc3c(c2Cl)C2(CCC(Cn4cncn4)C2)CN3)c1F (configuration not stated) [US12208088, Compound 129]

1. 163
2. 28.4
3. 11.5
4. 43.9
5. 23.4

Give Ki for each listed item.
1. CC(=O)Nc1cc(C(=O)N(C)C)cc(-c2cnc3c(c2Cl)C2(CC2)CN3)c1 [US12208088, Compound 33]
2. CN(CC(C)(C)O)C(=O)c1c(N)ccc(-c2cnc3c(c2Cl)C2(CC2)CN3)c1F [US12208088, Compound 35]

771
22.8
